B1: Hairpin Ribozyme (parent)
chain: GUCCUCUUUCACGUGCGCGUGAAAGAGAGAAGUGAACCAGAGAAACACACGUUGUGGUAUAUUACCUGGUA

Variants of: B1
Assay: self-cleavage, relative activity (ratio to wild type); higher = more cleavage; co-transcriptional
Measured self-cleavage of individual entries
Measurement type: self-cleavage

C12U A43G ... 0.0708
C3G A44C ... 0.153
C3U G27C ... 0.177
A43C G56A ... 0.13
C16G A30U ... 0.0915
U5C G42U ... 0.164
A35U G54A ... 0.197
G13A C18A ... 1.02
C3U A26U ... 0.27
A28C U67A ... 0.135
G1C C3G ... 0.246
G1A A24C ... 0.18
A26U C48U ... 0.0687
G32C C46U ... 0.109
A36U A64C ... 0.0976
G25U A61C ... 0.231
U9C G68A ... 0.344
G32C G68U ... 0.135
A41G C50A ... 0.255
A31C U55G ... 0.1
C48A G68C ... 0.246
A41U ... 1.29
G21A G32A ... 0.193
A31C G54A ... 0.152
A39C U67G ... 0.548
A44G A64U ... 0.102
U8A G17U ... 0.79
A45G U70C ... 0.0703
G25U U62A ... 0.114
U20G A47U ... 0.0722
C4U A30G ... 0.128
C12U A44G ... 0.201
G15C C48A ... 0.121
U7A U8G ... 0.925
C37U G40C ... 0.172
U53A U70C ... 0.951
U8A A44C ... 0.213
U5A U8C ... 0.141
A22G U55C ... 0.294
G32U G57A ... 0.139
C3G U7G ... 0.281
C3A G19C ... 0.535
C4G C46A ... 0.102
C3A A49G ... 0.426
U14A A41G ... 0.867
G17A G42C ... 0.367
